- System: MDA-MB-231 breast
- experimental details: NCI-60 one-dose screen, 48 h (100 = growth as untreated, 0 = no growth, -100 = all killed)
- assay context: 10 µM unless noted
- Procedure: Cells are grown in 96 well plates and exposed to the test compound for 48 hours. Compounds are tested at a single concentration, which is 10^-5 M for most compounds. The reported endpoint is percent growth (GI% or GIPRCNT), where numbers from 0 - 100% represent growth inhibition, and numbers from -100% - 0 represent cell death. For example, a value of 40 represents 60% growth inhibition. A value of 0 means no net growth occurred over the course of the experiment. […]
Compounds without any hit were thinned out: in the full panel of roughly 83,000, 20% have a hit.
Measured growth of individual entries
API: value field is a number in %; no unit string.

Solved entries:
compound: Nc1cccc(Nc2cc(S(=O)(=O)O)c(N)c3c2C(=O)c2ccccc2C3=O)c1
assayed target: MDA-MB-231 breast
reported property: growth
units: %
endpoint result: 107
//
compound: CCOC(=O)c1sc(-c2ccc(OS(=O)(=O)c3ccccc3[N+](=O)[O-])c(C=O)c2)nc1C
assayed target: MDA-MB-231 breast
reported property: growth
units: %
endpoint result: 84

State its growth on MDA-MB-231 breast: COc1ccc2oc(=O)cc(Cn3cc(Cn4cnc5c4c(=O)n(C)c(=O)n5C)nn3)c2c1
98

Query for MDA-MB-231 breast: what growth does the record show for COc1cc(C2C3=C(COC3=O)N(CCO)c3cc4c(cc32)OCCO4)cc(OC)c1O (stereo not given) ?
27.7

Value wanted: growth (MDA-MB-231 breast) of entry COc1ccccc1N1C(=N)S/C(=C\c2ccc(OCc3ccccc3F)cc2)C1=O
51.4

Query the reported growth for MDA-MB-231 breast; item: COc1cc(/C(C#N)=C/c2nc3c(N4CCOCC4)nc(Cl)nc3n2C)cc(OC)c1OC
9.11

* * *

Each record here notes measured growth.
- System: HCC-2998 colon
- experimental details: NCI-60 one-dose screen, 48 h (100 = growth as untreated, 0 = no growth, -100 = all killed)
- assay context: 10 µM unless noted
- Method: Growth inhibition of the HCC-2998 human tumor cell line is measured as a screen for anti-cancer activity. Cells are grown in 96 well plates and exposed to the test compound for 48 hours. Compounds are tested at a single concentration, which is 10^-5 M for most compounds. The reported endpoint is percent growth (GI% or GIPRCNT), where numbers from 0 - 100% represent growth inhibition, and numbers from -100% - 0 represent cell death. For example, a value of 40 represents 60% growth inhibition. […]
Compounds without any hit were thinned out: in the full panel of roughly 83,000, 20% have a hit.
Your answer is read as %, so omit the unit and give the number.

Solved entries:
compound: CC[C@]1(O)C[C@@H]2CN(CCc3c([nH]c4ccccc34)[C@@](C(=O)OC)(c3cc4c(cc3OC)N(C)[C@H]3[C@@](O)(C(=O)OC)[C@H](OC(=O)CCCBr)[C@]5(CC)C=CCN6CC[C@]43[C@@H]65)C2)C1
units: %
growth: 9.27

compound: CSc1nc2c(c(=O)n1C)N=C1c3ccccc3C(=O)C1C(c1ccccc1)N2 (stereo not given)
units: %
growth: 64.8

compound: O=C(O)c1cn(C2CC2)c2cc(N3CCN(C(=O)C[n+]4ccccc4)CC3)c(F)cc2c1=O
units: %
growth: 106

compound: COC(=O)/C(CCC=C(C)C)=C1\[C@@H](OC(C)=O)C[C@@]2(C)[C@H]1CC(=O)N[C@H]1[C@@]3(C)CCNC(=O)[C@@H](C)[C@@H]3CC[C@@]12C
units: %
growth: 103

compound: COC(=O)[C@@H]1CCCN1C(=O)[C@H]1CCCN1C(=O)[C@@H](Cc1c[nH]c2ccccc12)NC(=S)Nc1cc(C(F)(F)F)cc(C(F)(F)F)c1
units: %
growth: 20.8

Which value of growth has been reported for O=S1(=O)N(Cc2ccccc2)[C@@H](Cc2ccccc2)[C@H](O)[C@H](O)[C@H](Cc2ccccc2)N1Cc1ccccc1 in the records?
-45.7

Look up growth for this compound: CCCCc1c(CCC)c(=N)c2ccccc2n1C
107

Report growth for CC(C)(C)c1ccc(C2CC(=O)C3=C(C2)Nc2ccccc2N(C(=O)c2ccccc2Cl)C3c2ccc(F)cc2)cc1 (stereo not given) please.
-21.2

growth for COc1ccc2sc3c(NCCCN)nc4ccccc4c3c(=O)c2c1 ?
-67.1

Fill in: growth of O=C(NCc1ccco1)C1CN(c2ccc(Cl)cc2)N(c2ccc(Cl)cc2)C1=O (stereo not given) is ___
76.1

State the recorded growth for this entry: C[n+]1c2ccccc2nc2ccc(NCCO)cc21
116

Could you tell me which growth is on file for CCCCC1CCc2cccc3c(SCC(=O)N(C)c4ccc(Cl)cc4)cc[n+]1c23 (stereo not given) ?
114

* * *

// reported growth for each item listed
- Tested on: SW-620 colon
- experimental details: NCI-60 one-dose screen, 48 h (100 = growth as untreated, 0 = no growth, -100 = all killed)
- assay context: 10 µM unless noted
The panel holds about 83,000 compounds, 20% with a hit somewhere; the sample as a whole holds those more often.
Respond with the bare value in %.

molecule: O=c1c2cc(F)ccc2sc2c(Nc3ccncc3)nc3ccccc3c12
assayed target: SW-620 colon
endpoint result: -74.6

molecule: O=C(c1nc2ccccc2[nH]1)C1C(c2ccc(F)cc2)C2CC3CCCCC3N2[C@@]12C(=O)Nc1ccc(Cl)cc12 (stereo not given in full)
assayed target: SW-620 colon
endpoint result: 41

molecule: COc1ccc(S(=O)(=O)N(Cc2ccc3c(n2)C=CC(C)(C)O3)C2CCC2)cc1OC
assayed target: SW-620 colon
endpoint result: 3.81

molecule: O=c1c(-c2nc3ccccc3[nH]2)cc2ccccc2n1Cc1cn(Cc2ccc(F)cc2)nn1
assayed target: SW-620 colon
endpoint result: 22.1

Now, please, on to the next molecule.
Quick one: growth of COc1cc(C2C3=C(COC3=O)N(CCO)c3cc4c(cc32)OCCO4)cc(OC)c1O (stereo not given) ?
17.2

* * *

- System: NCI/ADR-RES ovarian
- experimental details: NCI-60 one-dose screen, 48 h
- assay context: 10 µM unless noted
About 83,000 compounds went through this panel and 20% of them were active in at least one assay; those are over-represented in the sample as a whole. Activity calls are given as the source filed them. Rule for the calls: active = growth percent below 10; inactive = the rest.
Your reply should match one of these outcome classes. true (1) (active), false (0) (inactive)

What classification did COc1cc(/C=C2\CN(S(=O)(=O)c3ccccc3)C/C(=C\c3cc(CN4CCCC4)c(O)c(OC)c3)C2=O)cc(CN2CCCC2)c1O end up with in this test?
false (0)

* * *

- Tested on: A498 renal
- experimental details: NCI-60 one-dose screen, 48 h
- assay context: 10 µM unless noted
The panel holds about 83,000 compounds, 20% with a hit somewhere; the sample as a whole holds those more often. Active and inactive are the calls of the source. How the source made its calls: active means growth percent below 10; inactive means the rest.
// classify into t for active, f for inactive

compound: C[n+]1c2ccccc2nc2ccc(NCCO)cc21
assigned category: f

compound: COc1ccc(Nc2nc(N/N=C/c3ccc(O)cc3)nc(Nc3ccc([N+](=O)[O-])cc3)n2)cc1
assigned category: f

compound: CCOC(=O)c1cc2c(n1Cc1ccccc1OC)-c1oncc1CCC2
assigned category: t

compound: O=C(CCc1nnc2sc(COc3ccccc3)nn12)c1nc2ncccc2[nH]1
assigned category: f

Record lookup: outcome of this test for COc1ccc(OC)c(NC(=O)/C(C#N)=C/c2ccco2)c1 ?
f

# outcome recorded in this test, key = Cc1ccc(NCCNCC(O)CO)c2c(=O)c3ccccc3sc12 (configuration not stated)
f

Entry COc1ccccc1C(=O)/C=C/c1ccccc1 : call = ?
f

# lookup: test call for O=S1(=O)N(Cc2ccccc2)[C@@H](Cc2ccccc2)[C@H](O)[C@H](O)[C@H](Cc2ccccc2)N1Cc1ccccc1
f

Recorded test call requested for CCN(CC)CCCNc1ccnc2cc3ccccc3cc12
f

Recorded call for Cc1ccc(Cc2cnc(NC(=O)CN3C(=O)/C(=C\c4ccccc4)SC3=S)s2)cc1 ?
f

Recorded call for COc1ccc(OC)c(/C=C/C(=O)c2c(C)nc3ccccc3c2/C=C/c2ccccc2)c1 ?
f

Dear all, I need the recorded test outcome for Brc1ccc(Nc2nc3ccccc3nc2Nc2ccc(Br)cc2)cc1 , thank you.
t

* * *

- Test system: 786-0 renal
- experimental details: NCI-60 one-dose screen, 48 h (100 = growth as untreated, 0 = no growth, -100 = all killed)
- assay context: 10 µM unless noted
This is part of a sample that, as a whole, favours compounds with a hit. Of some 83,000 tested, about 20% had one in any assay.
Classification field: enter t for growth values not below 70%, f for values below it.

molecule: COc1ccc(C2C3=C(COC3=O)N(CCO)c3cc4c(cc32)CCC4)cc1OC (centres undefined)
assigned category: f

Quick check: does O=C1c2cc(Cl)ccc2Oc2cc([N+](=O)[O-])ccc2N1c1ccc(F)cc1F have growth greater than or equal to 70%?
t

Is growth for CCOC(=O)c1ccc2[nH]c(-c3ccccc3)cc(=O)c2c1 at or above 70%?
t

Determine whether this molecule has growth no lower than 70%: Nc1cccc(Nc2cc(S(=O)(=O)O)c(N)c3c2C(=O)c2ccccc2C3=O)c1
t

In plain terms: is recorded growth at least 70% for Cc1nc(Nc2ccccn2)sc1C(=O)/C=C/c1ccc(Cl)cc1 ?
f

Dear colleague, could you confirm whether COC(=O)/C(CCC=C(C)C)=C1\[C@@H](OC(C)=O)C[C@@]2(C)[C@H]1C[C@@H](O)[C@H]1[C@@]3(C)CC[C@H](NC(=O)c4cnccn4)[C@@H](C)[C@@H]3CC[C@@]12C has growth at or above 70%?
t

Please check the record O=C(Nc1ccc(N2CCNCC2)cn1)c1[nH]ncc1Nc1ncnc2sc3c(c12)CCC3 and state if its growth is at or above 70%.
f

Reported growth reaches at least 70% for CCCC(c1nnnn1C1CCCCC1)N1CCN(C(=O)c2ccco2)CC1 (centres undefined) ?
t

Check the entry Brc1ccc(Oc2ccc(Nc3ncnc4onc(-c5ccccc5)c34)cc2)cc1 : does growth equal or exceed 70%?
t
